Data credit: ChEMBL document CHEMBL3988442

Tested on: Leishmania donovani
Test: Leishmania intramacrophage assay
Format: functional, organism-based
Set-up: scale not given: in the data most compounds retested in dose-response had high values
Conditions: 30.3 µM; […]
The campaign covered roughly 69,000 compounds. About 1,000 (1.4%) showed an effect of 50% or more. This excerpt belongs to a sample that is enriched for strong results.
So I've got a bunch of compounds here, and I need their Percent Effect values.
Answer with the number, then the unit.

# count of solved cases: 5
O=C(N[C@@H]1CCCNC1)C1(Oc2ccc(Cl)cc2)CCNCC1    12.74%
COc1ccccc1C1(CNc2snc(Cl)c2C#N)CCCC1    7.398%
COc1ccccc1C1(CNc2snc(Cl)c2C#N)CCOCC1    -16.98%
O=C(NCC(O)c1ccoc1)Nc1cccs1 (stereo unspecified)    10.34%
O=C(N[C@@H]1C[C@H]2CC[C@@H]1C2)C1(Oc2ccc(Cl)cc2)CCNCC1    99.44%

Please turn your attention to the following entry.
Checklist item: Percent Effect tested on Leishmania donovani, entry `CO[C@H]1COC[C@@H]1NC(=O)C1(Oc2ccc(Cl)cc2)CCNCC1` , value?
9.396%

----------
Tested on: Leishmania donovani
Assay: Leishmania intramacrophage assay
Type: functional, organism-based
Parameters: scale not given: in the data most compounds retested in dose-response had high values
Conditions: 30.3 µM; […]
About 1,000 (1.4%) of roughly 69,000 compounds showed an effect of 50% or more. The sample holds strong results, similar compounds and a random draw of the others, so the mix is not that of the screen.
Outcome measure: Percent Effect (%)
Numbers only, in %.

Here is how some compounds turned out for Percent Effect.
COc1ccc(CNC(Cc2ccsc2)c2ccc(C)cn2)cc1OC.Cl (stereo unspecified)    12
O=c1[nH]nc(CNCc2ccc(OC34CCCN(CC3)C4)cc2)[nH]1 (stereo unspecified)    39.69
CCS(=O)(=O)CCNC1CCN(c2nc3ccc(Cl)cc3s2)CC1    66.16

Provide reported Percent Effect for each item, in the same order as listed.
1. Cc1ccc(NC2CCCN(C3Cc4ccccc4C3)C2)nn1 (stereo unspecified)
2. CCc1nccn1CCNC1CCN(c2nc3ccc(Cl)cc3s2)CC1
3. COc1cccc(OC)c1CNC(Cc1ccsc1)c1ccc(C)cn1 (stereo unspecified)
4. CN1CCCC2(CCN(C(=O)Cn3ncc4ccccc4c3=O)C2)C1=O (stereo unspecified)
5. COc1cc(C#N)ccc1OC12CCCN(CC1)C2 (stereo unspecified)
6. CC(=O)NCCNC(=O)Nc1cccc(Cl)c1SC(F)F

[23.72, 98.8, 99.68, -13.05, 20.92, 17.25]

----------
Test system: Leishmania donovani
Assay: Leishmania intramacrophage assay
Type: functional, organism-based
Set-up: scale not given: in the data most compounds retested in dose-response had high values
Conditions: 30.3 µM; […]
Hit rate of the full screen: of about 69,000 compounds, about 1,000 (1.4%) showed an effect of 50% or more. The list comes from a sample in which strong results are over-represented; it also holds close analogues and randomly drawn compounds.
Please use rule met for Percent Effect under 30% and rule not met for everything else, ties included.

Strictly below 30% in Percent Effect? `Cc1nc(O)cc(CCNc2nccc(CCC(F)(F)F)n2)n1`
rule met

Lab note: confirm whether the reported Percent Effect for this compound is below 30%, equality not counting. compound: CCOCC(O)CN1CCN(C(=O)C2CCC2)CC1 (centres undefined)
rule met

Threshold test, Percent Effect < 30%: `NS(=O)(=O)NCC1(c2ccccc2Br)CC1`
rule not met

Confirm or reject: Percent Effect of `CS(=O)(=O)NCC1(c2ccccc2Br)CC1` lies strictly below 30%
rule met

Determine whether this compound shows Percent Effect lower than 30% (ties excluded): CC(=O)N1CCC(c2ccnc(Nc3cc(C(F)(F)F)ccn3)n2)C1 (centres undefined)
rule not met

For CCN1CCCC1CN(CCN(C)C)S(=O)(=O)c1ccccc1C#N (centres undefined) , is the recorded Percent Effect below the cut-off of 30%?
rule met

Is Percent Effect of CCc1cnc(CN(C)C2CCN(CCCNS(C)(=O)=O)C2)o1 (centres undefined) strictly below 30%?
rule met

In the record for `Oc1cc(CN2CCC(O)(Cn3ccnc3)CC2)nc2ccc(F)cc12` , is Percent Effect less than 30%?
rule met

Record O=C(c1cc(C2CCCCN2C(=O)C2CCC2)n[nH]1)N1CCOCC1 (centres undefined) : is its Percent Effect strictly below 30%?
rule met

Please state whether Percent Effect is below 30% for CCOCCN1CCN(CC(=O)NC2(C#N)CCCC2)CC1CC (centres undefined)
rule met

Does the reported Percent Effect of the following compound sit strictly below 30%? `O=C1CC[C@H](C(=O)N(Cc2cccc(Br)c2)C2CC2)N1`
rule not met

# TODO verify Percent Effect < 30% strictly for this compound: CCn1ccc(C(=O)N2CCCC2(C)c2nc(C)cc(N(C)C)n2)n1 (centres undefined)
rule met

hey, is Percent Effect for `Cc1ccccc1C(=O)N1CC[C@H](O)[C@@H](N2CCOCC2)CC1` lower than 30% or not?
rule met

Given the entry `Cc1cc(C(=O)NCC(C)C)nn1C` , would its reported Percent Effect be below 30%?
rule met

Hi there! Is Percent Effect for CC1c2ncc(COCC3CC3)n2CCN1C.O=C(O)C(F)(F)F (centres undefined) below 30%, do you know?
rule met

----------
Tested on: Leishmania donovani
Assay: Leishmania intramacrophage assay
Type: functional, organism-based
Design: scale not given: in the data most compounds retested in dose-response had high values
Conditions: 30.3 µM; […]
About 1,000 (1.4%) of roughly 69,000 compounds showed an effect of 50% or more. The list comes from a sample in which strong results are over-represented; it also holds close analogues and randomly drawn compounds.
Outcome measure: Percent Effect (%)
Answers are plain numbers, in %.

O=C(c1cnn2c1OCCC2)N1CCC(Cc2ccccc2)CC1    -34.88
CCC(CC(=O)NS(=O)(=O)C(C)C)c1ccccc1 (stereo not given)    -1.743
O=C(NC1CC(F)(F)C1)[C@]12COC[C@H]1CN(Cc1ccsc1)C2    55.66
COc1ccccc1CC(C)CC(=O)NS(=O)(=O)C(C)C (stereo not given)    63.27
O=C(C1CCC1)N1C[C@@H]2CCN(c3cccnc3)C[C@@H]2C1.O=C(O)C(F)(F)F    7.145
COCC(=O)N1CCCCC1c1nc(C)c2c(n1)N(C1CC1)C(=O)CC2 (stereo not given)    6.342
Cc1c(C(C)NC2CCCC2)cnn1-c1ccc(F)cc1F (stereo not given)    6.771
Cc1cc(-c2cnc(N3CCSCC3)nc2C(C)C)on1    -38.52

Batch request: Percent Effect for each of the following molecules.
1. CC(C)CCc1n[nH]c(C(=O)O)c1Br
2. CNC(=O)[C@H]1C[C@@H]2CCN(CCc3ccccc3)C[C@@H]2O1.O=C(O)C(F)(F)F
3. Cn1ccnc1Sc1ccc(S(N)(=O)=O)cn1
4. O=C(c1ccc(COc2ccc(Cl)cc2)o1)N1N=CCC1(O)C(F)(F)F (stereo not given)

1.329
53.78
-16.43
-74.85

Required: Percent Effect, one value per molecule below.
1. Cc1cccc(C(C(=O)NC(C)(C)CN2CCOCC2)N(C)C)c1 (stereo not given)
2. O=C(NC1CC1)[C@@H]1C[C@@H]2CCN(Cc3ccoc3)C[C@@H]2O1.O=C(O)C(F)(F)F
3. COC(=O)c1ccc(OC)c(OC23CCCN(CC2)C3)c1 (stereo not given)
4. COc1ccc(C)nc1NC(=O)Cc1c(C)nn(C)c1C
5. Cc1cccc(C(C(=O)NC(C)(C)CN2CCCC2)N(C)C)c1 (stereo not given)

-45.9
29.69
-2.222
1.753
64.22

Batch: Percent Effect for all items listed.
1. O=C(NC1CCC1)[C@@H]1C[C@@H]2CCN(CCc3ccccc3)C[C@H]2O1.O=C(O)C(F)(F)F
2. CC(C)(C)OC(=O)N1CCN(S(=O)(=O)CCCC#N)C2(CCCCC2)C1

1. -19.62
2. 52.1

Quick batch: Percent Effect for everything below.
1. Cc1ccc2c(n1)N(CCN(C)C)CCN(C(=O)c1cccs1)C2.O=C(O)C(F)(F)F.O=C(O)C(F)(F)F
2. CC(C)N1CCC2(CCCN(Cc3ccc(F)cc3)C2=O)C1 (stereo not given)
3. Fc1cccnc1N1CCCC(c2nccs2)C1 (stereo not given)
4. Cc1ccc(C2(CN(C)Cc3c(C)nn(C)c3C)CCNCC2)nc1

50.31
12.06
14.11
37.1

# batch size: 7; output Percent Effect per entry
1. Cc1c(C(C)NC2CCN(C(C)C)CC2)cnn1-c1ccc(F)cc1F (stereo not given)
2. CN1CCN(S(=O)(=O)c2ccc(Sc3nccn3C)nc2)CC1
3. CC(C)CSCCN1CCCN(S(C)(=O)=O)CC1
4. Cc1nc(C2CCN(C(=O)c3cc(C4CC4)[nH]n3)CC2)no1
5. CC(C)NC(=O)[C@@H]1C[C@@H]2CCN(Cc3ccoc3)C[C@H]2O1.O=C(O)C(F)(F)F
6. COc1ccc(CN(C(=O)C2CCCS2)c2ccncc2)cc1 (stereo not given)
7. O=C(O)C(F)(F)F.O=C(c1ccc(F)cc1)N1C[C@@H]2CCN(c3cccnc3)C[C@@H]2C1

1. 61.65
2. 0.3902
3. 6.004
4. 23.74
5. 11.62
6. -1.322
7. -2.032

Below are some molecules; for each one, tell me its Percent Effect.
1. Cc1ccc(C2(CN(C)Cc3snnc3C)CCNCC2)nc1
2. COc1ccccc1CC(C)CC(=O)NC(C)C (stereo not given)
3. Cc1ccc2c(n1)N(CCN(C)C)CCN(C(=O)c1cscn1)C2.O=C(O)C(F)(F)F.O=C(O)C(F)(F)F
4. O=C(Nc1ccc(S(=O)(=O)Nc2c(F)cccc2F)cc1)N1CCCC1
5. COCCN(Cc1cnn(C)c1)C(=O)C1CCCN(C2CCOCC2)C1 (stereo not given)
6. COc1cccc(CN(C)c2ncc(C(N)=O)cc2Cl)c1
7. CC(C)(C)OC(=O)N1CCN(S(C)(=O)=O)C2(CCCCC2)C1
8. COCC(=O)N1CCCn2c(CN3CCCC3)nnc2C1

[37.33, 59.88, 4.389, 12.59, 2.022, -8.015, 27.8, 44.76]

Go through the list and state Percent Effect for each entry.
1. Cc1nc(Nc2ncc(C)s2)cc(C2CCCN2)n1.Cl (stereo not given)
2. Cc1ccoc1C(=O)NCCS(=O)(=O)N1CCSCC1
3. COc1cc(NC2CCN(C3CCS(=O)(=O)CC3)CC2)ncn1
4. Cc1nc(Nc2nnc(C)s2)cc(C2CCCN2)n1.Cl (stereo not given)
5. Cc1ncncc1C(=O)NCCN1CCC(C)CC1

[56.27, 62.05, 36.7, -1.301, 57.89]

For each of the items listed, what is its Percent Effect?
1. COCC(=O)N1CCCn2c(CN3CCCC3=O)nnc2C1
2. O=C(NCC1CC1)[C@H]1C[C@@H]2CCN(CCc3ccccc3)C[C@H]2O1.O=C(O)C(F)(F)F

51.47
-22.31
